SYSTEM: rSol g 2.1 protein (Solenopsis geminata, UniProt A0A9E7V488)
Sequence (A0A9E7V488 1-119): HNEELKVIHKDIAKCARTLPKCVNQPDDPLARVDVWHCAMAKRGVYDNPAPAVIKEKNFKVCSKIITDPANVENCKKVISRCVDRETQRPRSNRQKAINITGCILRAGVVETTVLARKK
EXPERIMENT: Fluorescence binding assay, NPN titration into rSol g 2.1
CONDITION_LABEL: 2 µM rSol g 2.1, 50 mM Tris-HCl pH 7.4, NPN 0-12 µM, emission 400 nm, specific binding with Hill slope model
PROPERTY_LABEL: Kd (nM)
Answers are plain numbers, in nM.

Given `c1ccc(Nc2cccc3ccccc23)cc1` , respond with its Kd.
1900

* * *

SYSTEM: UniProt:A0A9E7V488
EXPERIMENT: Fluorescence competitive binding assay (NPN displacement)
CONDITION_LABEL: 2 µM rSol g 2.1 with 4 µM NPN, ligand 0-4 µM, 50 mM Tris-HCl pH 7.4
PROPERTY_LABEL: pKd
One number for each entry, as −log10 of the molar value.

Take a look at these entries with their results.
INSERT INTO assay_data (molecule, readout_value) VALUES
  ('CCCCCCCCCCC [undecane, Undecane]', 6.48),
  ('CCCCCCCCCCCC [dodecane, Dodecane]', 6.41),
  ('CCCCCCCCCCCCC [tridecane, Tridecane]', 6.42);

From here, focus on the item given below.
Given CCCCCCCCCC [decane, Decane] , respond with its pKd.
6.49
